# targetDesc: thromboxane synthase (Guinea Pig Lung Microsomes) (Cavia porcellus, UniProt H0UT36)
# Construct: The lungs were removed, freed of trachea and the majority of blood removed by rinsing the lungs with buffer; from tissue; host or cells: lungs of male guinea pigs (microsomes, 110,000 g pellet)
# Sequence (H0UT36 entry or part of it): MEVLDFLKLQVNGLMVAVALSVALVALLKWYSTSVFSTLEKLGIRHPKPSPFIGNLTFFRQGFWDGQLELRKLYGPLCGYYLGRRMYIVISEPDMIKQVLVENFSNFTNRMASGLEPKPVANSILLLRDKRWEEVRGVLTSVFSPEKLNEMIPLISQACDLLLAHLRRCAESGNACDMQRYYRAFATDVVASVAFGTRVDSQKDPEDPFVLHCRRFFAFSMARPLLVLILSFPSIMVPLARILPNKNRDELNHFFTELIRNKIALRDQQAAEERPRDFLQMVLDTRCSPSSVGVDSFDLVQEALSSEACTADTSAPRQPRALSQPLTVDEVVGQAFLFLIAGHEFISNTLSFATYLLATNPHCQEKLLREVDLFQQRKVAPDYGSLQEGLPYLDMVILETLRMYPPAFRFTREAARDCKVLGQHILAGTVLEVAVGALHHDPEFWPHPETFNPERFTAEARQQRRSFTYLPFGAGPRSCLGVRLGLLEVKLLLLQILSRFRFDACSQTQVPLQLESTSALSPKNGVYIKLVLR
# assayComment: biochemical
# protocolConditions: IC50, enzyme source G = Guinea Pig Lung Microsomes
measureName: IC50

Look over these answered cases.
> print(dat)
                                   compound  result
1  O=C1C(CC[S+]([O-])c2ccccc2)C(=O)N(c2ccccc2)N1c1ccccc1 (stereo not drawn) [reference compound]   ~1 mM
2                         Nc1cncc(C(=O)O)c1  > 1 mM

State its IC50 on thromboxane synthase (Guinea Pig Lung Microsomes) (Cavia porcellus, UniProt H0UT36): "CCn1ccnc1"
> 1 mM

meta.source: patent US4731363A
